What TGI was measured for each of the following?
system: U251 CNS; assay: NCI tumour cell line growth inhibition, 48 h
Numbers only, in µM.

[[record]]
compound = "Cc1nn(-c2ccccc2)c2c1C(c1cc3ccccc3nc1Cl)NC(=S)N2 (stereo not given)"
system_tested = "U251 CNS"
test_value = 83

[[record]]
compound = "CN(C)c1ccc(/C=C/c2ccnc3ccccc23)cc1N"
system_tested = "U251 CNS"
test_value = 40.8

[[record]]
compound = "Cc1cc(C)nc(NS(=O)(=O)c2ccc(NNC(=O)c3cccc4c(NNc5ccc(S(=O)(=O)Nc6nc(C)cc(C)n6)cc5)c5ccccc5nc34)cc2)n1"
system_tested = "U251 CNS"
test_value = 46.6


Hi, could you look up TGI for each item in my list?
1. Oc1ccccc1Nc1nc2ccccc2c2occc12
2. Cc1cc(NS(=O)(=O)c2ccc(NC(=O)c3cccc4cc5ccccc5nc34)cc2)no1
3. COc1cc(C(=O)/C=C/c2c(-c3ccc(F)cc3)nc3ncccn23)cc(OC)c1OC

Result block:
[24.7, 75.5, 12.9]

* * *

What TGI was measured for each of the following?
system: CAKI-1 renal; test: NCI tumour cell line growth inhibition, 48 h

Take a look at these entries with their results.
[[record]]
compound = "COc1ccc(C(=O)Cn2c(C(C)=O)nc3ccccc32)cc1"
system_tested = "CAKI-1 renal"
test_value = "> 100 µM"

[[record]]
compound = "CCN(CC)CCC(=O)N1CCc2c([nH]c3ccccc23)C1c1cccnc1 (stereo not drawn)"
system_tested = "CAKI-1 renal"
test_value = "> 100 µM"

[[record]]
compound = "O=Cc1[nH]c(=O)[nH]c(=O)c1CCl"
system_tested = "CAKI-1 renal"
test_value = "> 100 µM"

[[record]]
compound = "CCCN1CN(c2ccccc2)C2(CCN(CCCC(=O)c3ccc(F)cc3)CC2)C1=O"
system_tested = "CAKI-1 renal"
test_value = "41.1 µM"


Hi, could you look up TGI for each item in my list?
1. CC1C2(C)OC(=N)C(C#N)(C(c3ccco3)O2)C1(C#N)C#N (stereo not drawn)
2. O=C1c2cccc3cccc(c23)C(=O)N1CCCCN1CCN(CCCCOc2ccc(-c3nc4ccc(N5CCOCC5)cc4[nH]3)cc2)CC1
3. COC(=O)C1=COC2OC3/C(=C\c4ccc(O)c(OC)c4)C(=O)OC34C=CC1C24 (stereo not drawn)
4. O=NNc1cnccn1
5. CN(C)CS/C(N)=N\C(O)C(Cl)(Cl)Cl (stereo not drawn)
6. C/C1=C\CC[C@@]2(C)O[C@@H]2C[C@@H]2[C@H](C/C(C)=C/CC1)OC(=O)C21CCN=N1 (stereo partly drawn)

Result block:
["27.4 µM", "> 100 µM", "41.7 µM", "> 1250 µM", "> 100 µM", "> 100 µM"]

Hi, could you look up TGI for each item in my list?
1. Cc1cc(NS(=O)(=O)c2ccc(NC(=O)c3cccc4cc5ccccc5nc34)cc2)no1
2. COc1cccc(C2C(C(=O)O)=C(CO)Oc3cc4c(cc32)OCO4)c1 (stereo not drawn)
3. CC(=O)O[C@H]1[C@@H](OC2CCCC2(c2ccccc2)c2ccccc2)O[N+]([O-])=C[C@@]12COCc1cc3c(cc12)OCO3 (stereo partly drawn)
4. CC(C)=CC(O)C/C(C)=C/CC/C(C)=C/CCC1(C)C(CCCO)/C(=C(/C)C=O)CCC1(C)O (stereo not drawn)
5. COc1ccc(-c2oc3cc(OC)c(OC)c(OC)c3c(=O)c2OC)cc1OC
6. c1ccc2c(-c3nc4ccccc4[nH]3)cccc2c1
7. O=c1oc2cc(O)ccc2cc1-c1nc2ccccc2s1

Result block:
1: 46.7 µM; 2: > 100 µM; 3: > 100 µM; 4: > 100 µM; 5: > 100 µM; 6: > 100 µM; 7: 74.6 µM

Hi, could you look up TGI for each item in my list?
1. O=C1Nc2ccccc2/C1=C/c1cn(C(=O)c2c(Cl)cccc2Cl)c2ccccc12
2. O=c1[nH]cc(N(CCCl)CCCl)c(=O)[nH]1
3. Nc1ccc(C(=O)NN2C(=O)C(Cl)C2c2ccc([N+](=O)[O-])cc2)cc1 (stereo not drawn)
4. c1ccc2c(c1)CCN1CCc3c([nH]c4ccccc34)C21 (stereo not drawn)

Result block:
5.77 µM
56.7 µM
36.1 µM
> 100 µM

Hi, could you look up TGI for each item in my list?
1. COC(=O)c1oc2c(O)c(OC)c(Br)cc2c1C
2. S=P1(c2ccccc2)Nc2ccc(Cl)cc2N1 (stereo not drawn)

Result block:
> 100 µM
> 100 µM
